Overview of recorded IC50 for various compounds
Assay Target: Peroxisome proliferator-activated receptor gamma (Homo sapiens, UniProt P37231)
Sequence (P37231 whole entry): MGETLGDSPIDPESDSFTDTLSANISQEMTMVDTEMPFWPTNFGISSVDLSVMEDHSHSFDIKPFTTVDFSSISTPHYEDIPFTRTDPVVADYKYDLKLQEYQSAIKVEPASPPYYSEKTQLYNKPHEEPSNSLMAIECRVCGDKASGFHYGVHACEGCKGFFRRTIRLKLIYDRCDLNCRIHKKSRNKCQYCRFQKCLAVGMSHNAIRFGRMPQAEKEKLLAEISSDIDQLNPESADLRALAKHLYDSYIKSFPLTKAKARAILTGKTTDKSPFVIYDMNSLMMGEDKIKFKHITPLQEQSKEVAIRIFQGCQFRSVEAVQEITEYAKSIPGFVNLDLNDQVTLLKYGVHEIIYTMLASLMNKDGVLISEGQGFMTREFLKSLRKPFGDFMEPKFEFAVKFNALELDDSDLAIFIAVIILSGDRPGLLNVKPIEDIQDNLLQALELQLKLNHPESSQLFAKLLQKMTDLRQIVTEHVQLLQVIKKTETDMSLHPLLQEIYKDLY
Run Description: competitive ligand displacement at PPARg – biochemical, fluorescence polarization, PolarScreen, PPARg partial agonist project, dose response (AID 504453)
Answer format: value, then unit.

Sample records with IC50:
{"Compound": "COc1ccc2nc(N3C(=O)C(=O)C(C(=O)c4ccco4)C3c3ccc(C)o3)sc2c1 (centres undefined)", "IC50": "5 µM"}
{"Compound": "Cc1ccc2nc(N3C(=O)C(=O)C(C(=O)c4ccc(C)o4)C3c3ccco3)sc2c1 (centres undefined)", "IC50": "22 µM"}
{"Compound": "CCOc1ccc2nc(N3C(=O)C(=O)C(C(=O)c4ccco4)C3c3ccco3)sc2c1 (centres undefined)", "IC50": "3 µM"}

Now consider a different compound.
Input: Please list IC50 recorded for the compound Cc1ccc2nc(N3C(=O)C(=O)C(C(=O)c4ccco4)C3c3ccc(C)o3)sc2c1 (centres undefined)
Output: 30 µM
